Measured pIC50, listed per entry for reference.
- System: prokaryotic ribosome (E. coli S30 extract)
- experimental_details: Prokaryotic in vitro translation inhibition, E. coli S30 extract with pBESTluc plasmid
- Format: biochemical
- details: Table 4; read-out: Translation Inhibition IC50^Pro
A value of pIC50 is the negative decimal logarithm of a concentration given in moles per litre.

Use these answered entries as a reference point.
NC[C@H]1O[C@@H](O[C@@H]2C(O)[C@H](N)CC(N)[C@H]2O[C@H]2OC(CO)=CC(O)[C@@H]2N)C(O)[C@H]1O (stereo partly drawn)    4.44
C[C@H](N)[C@H]1O[C@@H](OC2C(O)[C@H](N)CC(N)[C@H]2O[C@H]2OC(CO)[C@@H](O)C(O)C2N)C(O)C1O (stereo partly drawn) [NB118, reference compound]    5.72

Then there is this molecule:
INPUT: GET /values?readout=pIC50&item= C[C@H](N)[C@H]1O[C@@H](O[C@@H]2C(O)[C@H](N)CC(N)[C@H]2O[C@H]2OC(CO)=CC(O)[C@@H]2N)C(O)[C@H]1O (stereo partly drawn)
OUTPUT: 3.87

The measurements presented in this section are drawn from patent US20190016746A1.
